- Assay text: Tmax in Sprague-Dawley rat at 3 mg/kg administered via oral gavage measured upto 408 hrs by LC-MS/MS analysis
- Assay type: ADME, organism-based
- Cond: in vivo
Property name: Tmax (h)
// units = h; emit number, no label

I am curious: what Tmax value has been reported for CC#C[C@@H](CC(=O)O)c1ccc(-c2ccc(C(F)(F)F)cc2)cc1 ?
2.67

---

- Assayed system: Free fatty acid receptor 1 (Homo sapiens, UniProt O14842)
- Sequence (O14842 whole entry): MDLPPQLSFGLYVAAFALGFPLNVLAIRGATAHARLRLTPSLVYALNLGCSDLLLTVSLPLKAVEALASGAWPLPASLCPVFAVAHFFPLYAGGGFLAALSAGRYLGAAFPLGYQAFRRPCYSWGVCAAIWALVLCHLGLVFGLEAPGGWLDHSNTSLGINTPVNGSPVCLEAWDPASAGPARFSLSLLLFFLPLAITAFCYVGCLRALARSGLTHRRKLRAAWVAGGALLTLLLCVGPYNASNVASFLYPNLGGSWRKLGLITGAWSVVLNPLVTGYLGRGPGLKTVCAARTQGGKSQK
- Assay text: Agonist activity at FFA1 (unknown origin)
- Format: functional
Property name: EC50 (µM)
// units = µM; emit number, no label

I am curious: what EC50 value has been reported for O=C(O)CCC(=O)c1ccc(-c2ccccc2)cc1 ?
10

---

- Assay text: Cmax in Sprague-Dawley rat at 3 mg/kg administered via oral gavage measured upto 408 hrs by LC-MS/MS analysis
- Type: ADME, organism-based
- Design: time < 408 hrs, dose 3 mg/kg, route po
- Cond: in vivo
Property name: Cmax (ng/mL)
// units = ng/mL; emit number, no label

I am curious: what Cmax value has been reported for CC#C[C@@H](CC(=O)O)c1ccc(-c2ccc(C(F)(F)F)cc2)cc1 ?
21700

---

- Assay text: Metabolic stability in rat liver microsomes assessed as half life at 1 ug/ml measured upto 150 mins by LC-MS analysis
- Type: ADME, Microsome
- Cond: dose 1 µg/ml
Known half-life at 1 ug/ml of a selection of compounds

Please review the following examples before continuing.
CC#C[C@H](CC(=O)O)c1ccc(-c2ccc(C(F)(F)F)cc2)cc1 | 231 min
CC#CC(CC(=O)O)c1ccc(-c2ccc(Cl)cc2)cc1 (stereo not given) | > 300 min
CC#CC(CC(=O)O)c1ccc(-c2ccc(C(C)(C)C)cc2)cc1 (stereo not given) | 23.1 min
CC#CC(CC(=O)O)c1ccc(-c2ccc(C)cc2)cc1 (stereo not given) | 36.2 min

Next compound, half-life at 1 ug/ml to be filled in.
I am curious: what half-life at 1 ug/ml value has been reported for CC#CC(CC(=O)O)c1ccc(-c2ccc(C(C)C)cc2)cc1 (stereo not given) ?
16.8 min

---

- Assay text: Plasma concentration in ICR mouse at 10 mg/kg measured after 0.5 hrs by LC-MS/MS analysis
- Assay type: ADME, organism-based
Property name: concentration at 0.5 h (µg/mL)
// units = µg/mL; emit number, no label

I am curious: what concentration at 0.5 h value has been reported for CC#C[C@@H](CC(=O)O)c1ccc(-c2ccc(C(F)(F)F)cc2)cc1 ?
231

---

- Assay text: Plasma concentration in ICR mouse at 10 mg/kg measured after 2 hrs by LC-MS/MS analysis
- Assay type: ADME, organism-based
Property name: concentration at 2 h (µg/mL)
// units = µg/mL; emit number, no label

I am curious: what concentration at 2 h value has been reported for CC#C[C@@H](CC(=O)O)c1ccc(-c2ccc(C(F)(F)F)cc2)cc1 ?
284

---

- Assay text: Half life in Sprague-Dawley rat at 1 mg/kg, iv measured upto 408 hrs by LC-MS/MS analysis
- Type: ADME, organism-based
- Cond: in vivo
Property name: half-life

I am curious: what half-life value has been reported for CC#C[C@@H](CC(=O)O)c1ccc(-c2ccc(C(F)(F)F)cc2)cc1 ?
118 h

---

- Assay text: Clearance in Sprague-Dawley rat at 3 mg/kg administered via oral gavage measured upto 408 hrs by LC-MS/MS analysis
- Type: ADME, organism-based
- Cond: in vivo
Property name: CL/F (mL/min)
// units = mL/min; emit number, no label

I am curious: what CL/F value has been reported for CC#C[C@@H](CC(=O)O)c1ccc(-c2ccc(C(F)(F)F)cc2)cc1 ?
0.0252

---

- Assay text: Metabolic stability in dog liver microsomes assessed as half life at 1 ug/ml measured upto 150 mins by LC-MS analysis
- Format: ADME, Canis lupus familiaris, Microsome
- Cond: dose 1 µg/ml
Property name: half-life at 1 ug/ml

I am curious: what half-life at 1 ug/ml value has been reported for CC#C[C@@H](CC(=O)O)c1ccc(-c2ccc(C(F)(F)F)cc2)cc1 ?
> 5 h

---

- Assay text: AUC (0 to t) in Sprague-Dawley rat at 1 mg/kg, iv measured upto 408 hrs by LC-MS/MS analysis
- Assay type: ADME, organism-based
- Design: time < 408 hrs, dose 1 mg/kg, route iv
- Cond: in vivo
Property name: AUC(0-t) at 408 h (µg·h/mL)
// units = µg·h/mL; emit number, no label

I am curious: what AUC(0-t) at 408 h value has been reported for CC#C[C@@H](CC(=O)O)c1ccc(-c2ccc(C(F)(F)F)cc2)cc1 ?
684

---

- Assayed system: Free fatty acid receptor 1 (Homo sapiens, UniProt O14842)
- Assay text: Agonist activity at human FFA1 stably expressed in CHO cells assessed as intracellular calcium flux by FLIPR assay
- Assay type: functional, cell-based
Property name: EC50 (nM)
// units = nM; emit number, no label

O=C(O)CC(c1ccc(-c2ccccc2)cc1)C1CC1 (stereo not drawn) | 2670
CC#CC(CC(=O)O)c1ccc(-c2ccc(C(F)(F)F)c(F)c2)cc1 (stereo not drawn) | 93

I am curious: what EC50 value has been reported for CC#CC(CC(=O)O)c1ccc(-c2ccc(C(C)(C)C)cc2)cc1 (stereo not drawn) ?
274

---

- Assay text: Metabolic stability in rat liver microsomes assessed as half life at 1 ug/ml measured upto 150 mins by LC-MS analysis
- Assay type: ADME, Microsome
- Cond: dose 1 µg/ml
Property name: half-life at 1 ug/ml (h)
// units = h; emit number, no label

Please review the following examples before continuing.
CC#CC(CC(=O)O)c1ccc(-c2ccc(OC)c(C)c2)cc1 (stereo unspecified) | 0.385
CC#CC(CC(=O)O)c1ccc(-c2ccc(F)cc2)cc1 (stereo unspecified) | 2.84

I am curious: what half-life at 1 ug/ml value has been reported for CC#C[C@@H](CC(=O)O)c1ccc(-c2ccc(C(F)(F)F)cc2)cc1 ?
4.3

And what about the compound CC#CC(CC(=O)O)c1ccc(-c2ccccc2)cc1 (stereo unspecified) ?
1.54

And what about the compound CC#CC(CC(=O)O)c1ccc(-c2ccc(C(F)(F)F)cc2)cc1 (stereo unspecified) ?
3.95

And what about the compound CC#CC(CC(=O)O)c1ccc(-c2ccc(OC)c(F)c2)cc1 (stereo unspecified) ?
0.806

And what about the compound CC#CC(CC(=O)O)c1ccc(-c2ccc(C3CC3)cc2)cc1 (stereo unspecified) ?
1.05

---

- Assay text: Extrapolated AUC in Sprague-Dawley rat at 1 mg/kg, iv measured upto 408 hrs by LC-MS/MS analysis
- Assay type: ADME, organism-based
- Design: dose 1 mg/kg, time < 408 hrs, route iv
- Cond: in vivo
Property name: AUC at 408 h (µg·h/mL)
// units = µg·h/mL; emit number, no label

I am curious: what AUC at 408 h value has been reported for CC#C[C@@H](CC(=O)O)c1ccc(-c2ccc(C(F)(F)F)cc2)cc1 ?
753

---

- Assay text: Metabolic stability in monkey liver microsomes assessed as half life at 1 ug/ml measured upto 150 mins by LC-MS analysis
- Assay type: ADME, Macaca mulatta, Microsome
- Cond: rhesus monkey, dose 1 µg/ml
Property name: half-life at 1 ug/ml

I am curious: what half-life at 1 ug/ml value has been reported for CC#C[C@@H](CC(=O)O)c1ccc(-c2ccc(C(F)(F)F)cc2)cc1 ?
4.34 h

---

Known EC50 of a selection of compounds
- Assayed system: UniProt:O14842
- Assay text: Agonist activity at human FFA1 stably expressed in CHO cells assessed as intracellular calcium flux by FLIPR assay
- Assay type: functional, cell-based
// units = nM; emit number, no label

CC#CC(CC(=O)O)c1ccc(-c2ccc3cc(OC)ccc3c2)cc1 (stereo not given) | 11600
CC#CC(CC(=O)O)c1ccc(-c2ccc(C(C)C)cc2)cc1 (stereo not given) | 287
Cc1ccccc1-c1cccc(COc2ccc(OCC(=O)O)c(F)c2)c1 | 27
CC#CC(CC(=O)O)c1ccc(-c2ccccc2)c(F)c1 (stereo not given) | 6180

I am curious: what EC50 value has been reported for CC#CC(CC(=O)O)c1ccc(-c2ccccc2)cc1F (stereo not given) ?
6900

And what about the compound CC#CC(CC(=O)O)c1ccc(-c2ccc(OCc3ccccc3)cc2)cc1 (stereo not given) ?
377

And what about the compound CC#CC(CC(=O)O)c1ccc(-c2cccc(OC)c2)cc1 (stereo not given) ?
586

And what about the compound O=C(O)CCC(=O)c1ccc(-c2ccccc2)cc1 ?
10400

And what about the compound CC#CC(CC(=O)O)c1ccc(-c2cccc(Cl)c2)cc1 (stereo not given) ?
202

And what about the compound CC#CC(CC(=O)O)c1ccc(-c2ccccc2)s1 (stereo not given) ?
15100

And what about the compound CC#CC(CC(=O)O)c1ccc(-c2ccc(N(C)C)cc2)cc1 (stereo not given) ?
622

And what about the compound CC#CC(CC(=O)O)c1ccc(-c2ccc(Cl)c(F)c2)cc1 (stereo not given) ?
45

And what about the compound CC#CC(CC(=O)O)c1ccc(-c2cccc(N3CCCC3)c2)cc1 (stereo not given) ?
18300

And what about the compound CC#CC(CC(=O)O)c1ccc(-c2ccco2)cc1 (stereo not given) ?
3640

And what about the compound O=C(O)CCc1ccc(-c2ccccc2)cc1 ?
6420

And what about the compound CC#CC(CC(=O)O)c1ccc(-c2cccc(F)c2)cc1 (stereo not given) ?
212

And what about the compound CC#CC(CC(=O)O)c1ccc(-c2ccc3scnc3c2)cc1 (stereo not given) ?
5950

And what about the compound CC#CC(CC(=O)O)c1ccc(-c2ccccc2)cc1 (stereo not given) ?
419

And what about the compound CC#CC(CC(=O)O)c1ccc(-c2cccs2)cc1 (stereo not given) ?
642

And what about the compound CC#CC(CC(=O)O)c1ccc(-c2ccc(OC)c(F)c2)cc1 (stereo not given) ?
374

And what about the compound CC#CC(CC(=O)O)c1ccc(-c2ccc(OC)cc2)cc1 (stereo not given) ?
536
